- System: HT-29
- measurement.notes: Cytotoxicity against human HT-29 cells after 96 hrs by SRB assay
- Format: functional, cell-based
- protocol.conditions: HT-29, 96 h
Quick rule for you: EC50 under 10 µM gets true (1), anything else gets false (0).

Example results:
CC(=O)O[C@H]1CC[C@]2(C)[C@H]3CC=C4[C@@H]5[C@@H](C)[C@H](C)CC[C@]5(C(=O)NO)CC[C@@]4(C)[C@]3(C)CC[C@H]2C1(C)C    true (1)
CON(C)C(=O)[C@]12CC[C@@H](C)[C@H](C)[C@H]1C1=CC[C@@H]3[C@@]4(C)CCC(=O)C(C)(C)[C@@H]4CC[C@@]3(C)[C@]1(C)CC2    false (0)
CON(C)C(=O)[C@]12CCC(C)(C)C[C@H]1C1=CC[C@@H]3[C@@]4(C)CC[C@H](OC(C)=O)C(C)(C)[C@@H]4CC[C@@]3(C)[C@]1(C)CC2    false (0)
C[C@H]1[C@H](C)CC[C@]2(C(=O)N(C)O)CC[C@]3(C)C(=CC[C@@H]4[C@@]5(C)CCC(=O)C(C)(C)[C@@H]5CC[C@]43C)[C@H]12    false (0)
CONC(=O)[C@]12CC[C@@H](C)[C@H](C)[C@H]1C1=CC[C@@H]3[C@@]4(C)CC[C@H](O)C(C)(C)[C@@H]4CC[C@@]3(C)[C@]1(C)CC2    false (0)

Shifting focus to the compound that follows.
In: is_below(EC50, 10 µM) for CN(O)C(=O)[C@]12CCC(C)(C)C[C@H]1C1=CC[C@@H]3[C@@]4(C)CCC(=O)C(C)(C)[C@@H]4CC[C@@]3(C)[C@]1(C)CC2 ?
Out: false (0)

----------
- Tested on: HT-29
- measurement.notes: Cytotoxicity against human HT-29 cells after 96 hrs by SRB assay
- Format: functional, cell-based
- protocol.conditions: HT-29, 96 h
measured.quantity: EC50
Answers without a unit are incomplete; give the number and then its unit.

CONC(=O)[C@]12CCC(C)(C)C[C@H]1C1=CC[C@@H]3[C@@]4(C)CC[C@H](OC(C)=O)C(C)(C)[C@@H]4CC[C@@]3(C)[C@]1(C)CC2    17.5 µM
CC(=O)O[C@H]1CC[C@]2(C)[C@H]3CC=C4[C@@H]5[C@@H](C)[C@H](C)CC[C@]5(C(=O)N(C)O)CC[C@@]4(C)[C@]3(C)CC[C@H]2C1(C)C    8.7 µM
CN(O)C(=O)[C@]12CCC(C)(C)C[C@H]1C1=CC[C@@H]3[C@@]4(C)CC[C@H](O)C(C)(C)[C@@H]4CC[C@@]3(C)[C@]1(C)CC2    8.7 µM

In: Recall the reported EC50 of CC(=O)O[C@H]1CC[C@]2(C)[C@H]3CC=C4[C@@H]5CC(C)(C)CC[C@]5(C(=O)NO)CC[C@@]4(C)[C@]3(C)CC[C@H]2C1(C)C on HT-29 and write it down.
Out: 4.9 µM

In: Recall the reported EC50 of CONC(=O)[C@]12CCC(C)(C)C[C@H]1C1=CC[C@@H]3[C@@]4(C)CCC(=O)C(C)(C)[C@@H]4CC[C@@]3(C)[C@]1(C)CC2 on HT-29 and write it down.
Out: 18.6 µM

In: Recall the reported EC50 of CONC(=O)[C@]12CC[C@@H](C)[C@H](C)[C@H]1C1=CC[C@@H]3[C@@]4(C)CC[C@H](OC(C)=O)C(C)(C)[C@@H]4CC[C@@]3(C)[C@]1(C)CC2 on HT-29 and write it down.
Out: 13.2 µM

In: Recall the reported EC50 of C[C@H]1[C@H](C)CC[C@]2(C(=O)NO)CC[C@]3(C)C(=CC[C@@H]4[C@@]5(C)CC[C@H](O)C(C)(C)[C@@H]5CC[C@]43C)[C@H]12 on HT-29 and write it down.
Out: 7.5 µM

----------
The entries below come with measured pEC50 values attached.
- measurement.notes: Cytotoxicity against mouse NIH/3T3 cells after 96 hrs by SRB assay
- Format: cell-based
- protocol.conditions: NIH3T3, 96 h
In simple prose, pEC50 is minus the logarithm base ten of a concentration in moles per litre.

Sample answers from the record:
CC(=O)O[C@H]1CC[C@]2(C)[C@H]3CC=C4[C@@H]5CC(C)(C)CC[C@]5(C(=O)N(C)O)CC[C@@]4(C)[C@]3(C)CC[C@H]2C1(C)C    4.91
CC1(C)CC[C@]2(C(=O)O)CC[C@]3(C)C(=CC[C@@H]4[C@@]5(C)CC[C@H](O)C(C)(C)[C@@H]5CC[C@]43C)[C@@H]2C1 [OLEANOLIC_ACID]    4.12

In: // fetch pEC50 given entry CON(C)C(=O)[C@]12CCC(C)(C)C[C@H]1C1=CC[C@@H]3[C@@]4(C)CCC(=O)C(C)(C)[C@@H]4CC[C@@]3(C)[C@]1(C)CC2
Out: 4.86

In: // fetch pEC50 given entry C[C@H]1[C@H](C)CC[C@]2(C(=O)NO)CC[C@]3(C)C(=CC[C@@H]4[C@@]5(C)CC[C@H](O)C(C)(C)[C@@H]5CC[C@]43C)[C@H]12
Out: 5.26

In: // fetch pEC50 given entry C[C@H]1[C@H](C)CC[C@]2(C(=O)N(C)O)CC[C@]3(C)C(=CC[C@@H]4[C@@]5(C)CC[C@H](O)C(C)(C)[C@@H]5CC[C@]43C)[C@H]12
Out: 5.00

----------
- Test system: A549
- measurement.notes: Cytotoxicity against human A549 cells after 96 hrs by SRB assay
- Assay type: functional, cell-based
- protocol.conditions: A549, 96 h
The entries below come with measured pEC50 values attached.
In simple prose, pEC50 is minus the logarithm base ten of a concentration in moles per litre.

Sample answers from the record:
CON(C)C(=O)[C@]12CCC(C)(C)C[C@H]1C1=CC[C@@H]3[C@@]4(C)CCC(=O)C(C)(C)[C@@H]4CC[C@@]3(C)[C@]1(C)CC2    5.25
C[C@H]1[C@H](C)CC[C@]2(C(=O)N(C)O)CC[C@]3(C)C(=CC[C@@H]4[C@@]5(C)CCC(=O)C(C)(C)[C@@H]5CC[C@]43C)[C@H]12    5.03
CON(C)C(=O)[C@]12CC[C@@H](C)[C@H](C)[C@H]1C1=CC[C@@H]3[C@@]4(C)CCC(=O)C(C)(C)[C@@H]4CC[C@@]3(C)[C@]1(C)CC2    5.06
CC1(C)CC[C@]2(C(=O)O)CC[C@]3(C)C(=CC[C@@H]4[C@@]5(C)CC[C@H](O)C(C)(C)[C@@H]5CC[C@]43C)[C@@H]2C1    4.14
CON(C)C(=O)[C@]12CCC(C)(C)C[C@H]1C1=CC[C@@H]3[C@@]4(C)CC[C@H](OC(C)=O)C(C)(C)[C@@H]4CC[C@@]3(C)[C@]1(C)CC2    4.75

Consider the record given below.
In: // fetch pEC50 given entry CC(=O)O[C@H]1CC[C@]2(C)[C@H]3CC=C4[C@@H]5CC(C)(C)CC[C@]5(C(=O)N(C)O)CC[C@@]4(C)[C@]3(C)CC[C@H]2C1(C)C
Out: 4.97

----------
- measurement.notes: Cytotoxicity against mouse NIH/3T3 cells after 96 hrs by SRB assay
- Type: cell-based
- protocol.conditions: NIH3T3, 96 h
The entries below come with measured EC50 values attached.
A number alone suffices; assume µM.

Sample answers from the record:
CC(=O)O[C@H]1CC[C@]2(C)[C@H]3CC=C4[C@@H]5[C@@H](C)[C@H](C)CC[C@]5(C(=O)NO)CC[C@@]4(C)[C@]3(C)CC[C@H]2C1(C)C    2.5
CON(C)C(=O)[C@]12CCC(C)(C)C[C@H]1C1=CC[C@@H]3[C@@]4(C)CC[C@H](O)C(C)(C)[C@@H]4CC[C@@]3(C)[C@]1(C)CC2    20.4

In: // fetch EC50 given entry CON(C)C(=O)[C@]12CCC(C)(C)C[C@H]1C1=CC[C@@H]3[C@@]4(C)CC[C@H](OC(C)=O)C(C)(C)[C@@H]4CC[C@@]3(C)[C@]1(C)CC2
Out: 13.3

----------
The entries below come with measured pEC50 values attached.
- Test system: A549
- measurement.notes: Cytotoxicity against human A549 cells after 96 hrs by SRB assay
- Format: functional, cell-based
- protocol.conditions: A549, 96 h
In simple prose, pEC50 is minus the logarithm base ten of a concentration in moles per litre.

CONC(=O)[C@]12CCC(C)(C)C[C@H]1C1=CC[C@@H]3[C@@]4(C)CC[C@H](O)C(C)(C)[C@@H]4CC[C@@]3(C)[C@]1(C)CC2    4.68
CON(C)C(=O)[C@]12CCC(C)(C)C[C@H]1C1=CC[C@@H]3[C@@]4(C)CC[C@H](O)C(C)(C)[C@@H]4CC[C@@]3(C)[C@]1(C)CC2    4.93

Consider the record given below.
In: // fetch pEC50 given entry CONC(=O)[C@]12CC[C@@H](C)[C@H](C)[C@H]1C1=CC[C@@H]3[C@@]4(C)CCC(=O)C(C)(C)[C@@H]4CC[C@@]3(C)[C@]1(C)CC2
Out: 5.04
